assay: Normalized percent cleavage of DNA from cleavage reactions (20 h) containing 100 μM compound and 50 μM (bp) supercoiled DNA at pH 9.0 in 20 mM TRIS buffer
DNA cleavage under 40% gets yes (1), anything at or over 40% gets no (0).

Known results for molecules:
smiles_str=C[n+]1c(C#Cc2ccccc2)sc2ccccc21 label_class="no (0)"
smiles_str=C(#Cc1nc2ccccc2s1)c1ccccc1 label_class="yes (1)"
smiles_str=C#CC[n+]1c(C#C[Si](C)(C)C)sc2ccccc21 label_class="yes (1)"

I wonder whether "C#CC[n+]1c(C#Cc2ccc(C)cc2)sc2ccccc21" has DNA cleavage below 40%. Can you tell?
no (0)

I wonder whether "C#CC[n+]1c(C#C[Si](C(C)C)(C(C)C)C(C)C)sc2ccccc21" has DNA cleavage below 40%. Can you tell?
yes (1)
